Entry source: patent US8957074B2

test system: phosphorylation of pRb at the Ser780 site in JeKo-1 mantle cell lymphoma cells; test: CDK4 cellular assay: ELISA of pRb phosphorylation at Ser780 in JeKo-1 cells; assay type: cell-based; conditions: Homo sapiens; JeKo-1 cells, p-pRb % inhibition adjusted with total pRb levels; read-out: Normalized cellular ppRb inhibition IC50
pIC50: −log10 of the molar value.
Cut-off 7 on pIC50, inclusive. At or above means yes; below means no.

Here are 4 compounds together with their reported answers.
CN(C)C(=O)c1cc2cnc(Nc3ccc(N4C[C@@H]5CNC[C@@H]5C4=O)cn3)nc2n1C1CCCCCC1: yes
CN(C)C(=O)c1cc2cnc(Nc3ccc(N4C[C@H]5CNC[C@H]5C4=O)cn3)nc2n1C1CCCCCC1: yes
CN(C)C(=O)c1cc2cnc(Nc3ccc(C(=O)N4C[C@H]5CNC[C@@H](C4)C5O)cn3)nc2n1C1CCCC1 (some centres unmarked): no
CN(C)C(=O)c1cc2cnc(Nc3ccc(C(=O)N4CCN5CCC4CC5)cn3)nc2n1C1CCCC1: no

Query: Can CN(C)C(=O)c1cc2cnc(Nc3ccc(C(=O)N4CC5CC5(N(C)C)C4)cn3)nc2n1C1CCCC1 (centres unmarked) be said to have pIC50 at or above 7?
Reply: no

Query: Identify whether the reported pIC50 of the following compound is 7 or greater: CN(C)C(=O)c1cc2cnc(Nc3ccc(C(=O)N4CC5CCC4C5O)cn3)nc2n1C1CCCCCC1 (centres unmarked)
Reply: no

Query: Hello, I need to know if CN(C)C(=O)c1cc2cnc(Nc3ccc(C(=O)N4CC[C@H]5CC[C@@H](C4)N5)cn3)nc2n1C1CCCC1 has measured pIC50 not below 7. Thanks!
Reply: yes

Query: Hi team, for CN(C)C(=O)c1cc2cnc(Nc3ccc(C(=O)N4CC5CCC(C4)N5)cn3)nc2n1C1CCN(C(C)(C)C)CC1 , is the recorded pIC50 at or above 7?
Reply: no

----------
biological target: CDK4/cyclin D1 (Homo sapiens (Human)); assay: CDK4/cyclin D1 enzymatic activity assay (TR-FRET, phosphorylation of pRb at Ser780); type: biochemical; conditions: 0.3 nM CDK4/cyclin D1, 150 nM biotin-pRb (773-924), 3 μM ATP, 60 min at 22° C.; read-out: Biochemical CDK4 enzyme IC50
pIC50: −log10 of the molar value.
Listed next: entries and their corresponding pIC50.

CN(C)C(=O)c1cc2cnc(Nc3ccc(C(=O)N4CC[C@H]5CC[C@@H](C4)N5)cn3)nc2n1C1CCCC1: 8.22 to 8.30
[2H]C([2H])([2H])N1C2CCC1CN(C(=O)c1ccc(Nc3ncc4cc(C(=O)N(C)C)n(C5CCCC5)c4n3)nc1)C2: 7.62 to 7.96
CN(C)C(=O)c1cc2cnc(Nc3ccc(N4CCC5(CCNCC5)C4=O)cn3)nc2n1C1CCCC1: 8.05 to 8.15
CN(C)C(=O)c1cc2cnc(Nc3ccc(C(=O)N4CC5CCC(C4)N5C(=O)C4CCCN4)cn3)nc2n1C1CCCC1 (centres unmarked): 7.70

Query: Tell me pIC50 reported for CN(C)C(=O)c1cc2cnc(Nc3ccc(C(=O)N4CC5CCC(C4)N5)cn3)nc2n1C1CCCCC1
Reply: 8.15 to 8.40

----------
biological target: CDK4/cyclin D1 (Homo sapiens (Human), UniProt P11802); assay: CDK4/cyclin D1 enzymatic activity assay (TR-FRET, phosphorylation of pRb at Ser780); type: biochemical; conditions: 0.3 nM CDK4/cyclin D1, 150 nM biotin-pRb (773-924), 3 μM ATP, 60 min at 22° C.; read-out: Biochemical CDK4 enzyme IC50
Sequence (P11802 whole entry): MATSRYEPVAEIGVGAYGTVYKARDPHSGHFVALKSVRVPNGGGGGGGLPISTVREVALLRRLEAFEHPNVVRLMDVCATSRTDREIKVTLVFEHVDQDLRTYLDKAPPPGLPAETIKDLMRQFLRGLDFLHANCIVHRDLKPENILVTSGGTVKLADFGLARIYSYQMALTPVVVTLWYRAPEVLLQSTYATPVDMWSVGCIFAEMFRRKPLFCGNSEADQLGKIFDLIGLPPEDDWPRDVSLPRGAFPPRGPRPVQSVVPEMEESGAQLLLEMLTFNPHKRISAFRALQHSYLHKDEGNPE
Sequence (P24385 whole entry partner): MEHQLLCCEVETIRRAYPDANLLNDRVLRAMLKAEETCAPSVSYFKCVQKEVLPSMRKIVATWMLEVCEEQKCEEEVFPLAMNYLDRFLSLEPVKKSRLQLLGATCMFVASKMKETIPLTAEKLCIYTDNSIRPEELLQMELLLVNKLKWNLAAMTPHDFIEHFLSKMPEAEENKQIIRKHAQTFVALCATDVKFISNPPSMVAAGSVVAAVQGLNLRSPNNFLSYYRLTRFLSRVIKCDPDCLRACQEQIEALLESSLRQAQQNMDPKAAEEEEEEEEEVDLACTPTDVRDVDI
pIC50: −log10 of the molar value.
Decision: pIC50 >= 8 yields Satisfied, all other cases yield Not satisfied.

CN(C)C(=O)c1cc2cnc(Nc3ccc(N4CC5(CC6CCC(C5)N6)OC4=O)cn3)nc2n1C1CCCC1 (stereo not drawn) [Example 101]: Not satisfied

Query: hey, is pIC50 for this one >= 8? CN(C)C(=O)c1cc2cnc(Nc3ccc(C(=O)N4CC5CCCC(C4)N5)cn3)nc2n1C1CCCC1 [Example 52]
Reply: Not satisfied

Query: Determine whether measured pIC50 meets or exceeds 8 for Cc1cc(Nc2ncc3cc(C(=O)N(C)C)n(C4CCCC4)c3n2)ncc1C(=O)N1CC2CCC(C1)N2 [Example 51]
Reply: Not satisfied

----------
target: CDK4/cyclin D1 (Homo sapiens (Human)); assay: CDK4/cyclin D1 enzymatic activity assay (TR-FRET, phosphorylation of pRb at Ser780); assay type: biochemical; conditions: 0.3 nM CDK4/cyclin D1, 150 nM biotin-pRb (773-924), 3 μM ATP, 60 min at 22° C.; read-out: Biochemical CDK4 enzyme IC50
pIC50: −log10 of the molar value.
In this section we review reported pIC50 values for a set of compounds.

Query: State its pIC50 for this compound: CN(C)C(=O)c1cc2cnc(Nc3ccc(C(=O)N4[C@@H]5CC[C@H]4C[C@@H](O)C5)cn3)nc2n1C1CCCC1 [Example 44]
Reply: 6.45 to 6.75

----------
Reported IC50 values follow for various molecules
molecular target: CDK4/cyclin D1 (Homo sapiens (Human)); assay: CDK4/cyclin D1 enzymatic activity assay (TR-FRET, phosphorylation of pRb at Ser780); type: biochemical; conditions: 0.3 nM CDK4/cyclin D1, 150 nM biotin-pRb (773-924), 3 μM ATP, 60 min at 22° C.; read-out: Biochemical CDK4 enzyme IC50
Answer in nM, number only, no unit symbol.

CN1CCCC2(C1)CN(c1ccc(Nc3ncc4cc(C(=O)N(C)C)n(C5CCCC5)c4n3)nc1)C(=O)O2 (stereo not drawn): 13

Query: Provide measured IC50 value, entry: CN(C)C(=O)c1cc2cnc(Nc3ccc(C(=O)N4CC5CCC(C4)O5)cn3)nc2n1C1CCCC1
Reply: 67

Query: Retrieve IC50 measured for CN(C)C(=O)c1cc2cnc(Nc3ccc(N4C[C@@]5(CCCNCC5)OC4=O)cn3)nc2n1C1CCCC1 and print it.
Reply: 12

Query: Please report the measured IC50 for CN(C)C(=O)c1cc2cnc(Nc3ccc(C(=O)N4CC5CC4CN5)cn3)nc2n1C1CCCCCC1 (stereo not drawn)
Reply: 1

Query: Tell me IC50 reported for CN(C)C(=O)c1cc2cnc(Nc3ccc(N4C[C@H]5CC[C@@H](CC4=O)N5)cn3)nc2n1-c1ccccc1
Reply: 9

----------
Quick reference: pIC50 of the listed items.
biological target: CDK1/cyclin B (Homo sapiens (Human), UniProt P06493); test: CDK1/cyclin B enzymatic activity assay (IMAP-FP); assay type: biochemical; conditions: […] CDK1/cyclin B, 100 nM Tamra Histone-H1 peptide, 20 μM ATP, 120 min at room temperature; read-out: Biochemical CDK1 enzyme IC50
Sequence (P06493 whole entry, species assumed): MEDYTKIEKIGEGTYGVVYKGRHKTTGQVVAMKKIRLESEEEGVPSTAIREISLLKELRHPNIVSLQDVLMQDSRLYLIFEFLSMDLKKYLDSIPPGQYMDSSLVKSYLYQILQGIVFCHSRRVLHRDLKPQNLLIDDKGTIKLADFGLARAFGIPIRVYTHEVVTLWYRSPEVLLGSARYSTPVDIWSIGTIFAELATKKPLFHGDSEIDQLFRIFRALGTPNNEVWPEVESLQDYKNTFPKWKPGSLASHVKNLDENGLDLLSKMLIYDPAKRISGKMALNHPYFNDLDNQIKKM
Sequence (P14635 whole entry partner, species assumed): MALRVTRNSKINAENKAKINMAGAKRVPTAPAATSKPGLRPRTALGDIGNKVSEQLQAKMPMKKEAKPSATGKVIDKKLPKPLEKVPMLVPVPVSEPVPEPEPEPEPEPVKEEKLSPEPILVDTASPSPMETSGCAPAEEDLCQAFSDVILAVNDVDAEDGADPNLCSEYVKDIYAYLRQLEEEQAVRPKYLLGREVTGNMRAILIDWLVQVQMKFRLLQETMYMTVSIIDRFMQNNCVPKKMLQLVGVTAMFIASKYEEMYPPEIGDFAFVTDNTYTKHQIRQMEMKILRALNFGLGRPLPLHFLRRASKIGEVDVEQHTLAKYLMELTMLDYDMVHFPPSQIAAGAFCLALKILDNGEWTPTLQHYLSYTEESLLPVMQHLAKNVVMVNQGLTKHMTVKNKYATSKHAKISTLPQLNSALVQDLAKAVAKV
pIC50: −log10 of the molar value.

As a guide, the following entries are already answered.
CN1CCCC2(CC1)CN(c1ccc(Nc3ncc4cc(C(=O)N(C)C)n(C5CCCC5)c4n3)nc1)C(=O)O2 (centres unmarked) [Example 104]: < 4.82
CN(C)C(=O)c1cc2cnc(Nc3ccc(N4CC5CCC(CC4=O)N5)cn3)nc2n1C1CCCC1 (centres unmarked) [Example 122]: < 4.82
CN(C)C(=O)c1cc2cnc(Nc3ccc(N4CC5CNCC5CC4=O)cn3)nc2n1C1CCCCCC1 (racemic) [Example 87]: 5.38
Cc1nc(Nc2ncc3cc(C(=O)N(C)C)n(C4CCCC4)c3n2)ccc1C(=O)N1CC2CCC(C1)N2 [Example 50]: < 4.82
CN(C)C(=O)c1cc2cnc(Nc3ccc(C(=O)N4CC5CNC(C5)C4)cn3)nc2n1C1CCCC1 (racemic) [Example 9]: 5.15

Query: Please indicate pIC50 recorded for CN(C)C(=O)c1cc2cnc(Nc3ccc(N4C[C@H]5CNC[C@H]5CC4=O)cn3)nc2n1C1CCCCCC1 (stereo in doubt) [Example 88]
Reply: 5.60

Query: Retrieve pIC50 measured for CN(C)C(=O)c1cc2cnc(Nc3ccc(N4CC5(CCCNCC5)OC4=O)cn3)nc2n1C1CCCC1 (centres unmarked) [Example 103] and print it.
Reply: < 4.82

Query: Read the entry CC(C)N1C2CCC1CN(C(=O)c1ccc(Nc3ncc4cc(C(=O)N(C)C)n(C5CCCC5)c4n3)nc1)C2 [Example 29] and write its reported pIC50.
Reply: < 4.82

Query: Look up pIC50 of CN(C)C(=O)c1cc2cnc(Nc3ccc(C(=O)N4CC5CCC(C4)N5)cn3)nc2n1[C@@H]1C[C@H]2CC[C@@H]1C2 (stereo in doubt) [Example 36] and report it.
Reply: 4.89

Query: Please look at this compound and report its pIC50: CN(C)C(=O)c1cc2cnc(Nc3ccc(C(=O)N4CCN5CCCC5C4)cn3)nc2n1C1CCCC1 (centres unmarked) [Example 20]
Reply: < 4.82

Query: Entry CN(C)C(=O)c1cc2cnc(Nc3ccc(N4C[C@H]5CC[C@@H](CC4=O)N5)cn3)nc2n1-c1ccccc1 [Example 130] needs its pIC50 filled in; supply it.
Reply: < 4.82
